Origin of the recorded values: ChEMBL document CHEMBL4513216

- method: Toxicity liver stage against HepG2, at 10uM
- Assay type: cell-based
- Design: test concentration 10 uM, cell line HepG2-A16-CD81EGFP
- measurementSetup: human, HepG2-A16-CD81EGFP cells; read-out: INHIBITION
observedProperty: cytotoxicity at 10 µM (%)
One number for each entry, in %.

For each of the items listed, what is its cytotoxicity at 10 µM?
1. Fc1ccc(-c2nnc(CN3CCCC3Cn3cccn3)o2)cc1 (configuration not stated)
2. CCCN(CCC)S(=O)(=O)NC(C)C(=O)N(C)C (configuration not stated)
3. COCCCN1CC2(CCC1=O)CCN(Cc1cc(C(C)C)no1)CC2
4. O=C(NCc1n[nH]c2c1CCCCC2)c1cnn2c1CCCC2
5. CCc1nc(CC(=O)N2CCCC2Cn2cccn2)cs1 (configuration not stated)

-5.65
-0.237
-2.1
13.6
-2.6

Working through the 7 compounds below one at a time, give cytotoxicity at 10 µM for each.
1. O=C(NCC1CCOC1)c1cc(-c2cccc(Cl)c2)[nH]n1 (configuration not stated)
2. CCCC(C#N)NC(=O)COC1CCCCC1 (configuration not stated)
3. CNC(=O)C1CN(C)CCN(C(=O)CCn2nnc3ccccc32)C1 (configuration not stated)
4. CCn1nc(C(=O)N2CCCC(n3cncn3)C2)ccc1=O (configuration not stated)
5. Cc1cc(NCc2cc3n(n2)CCCN(C(=O)C2CCC2)C3)ncn1
6. Cc1cnn(CC(C)NCc2ccc(OCc3cccnc3)cc2)c1 (configuration not stated)
7. CCCC(C)(C)NC(=O)c1cnc(C)s1

-1.74
8.71
2.71
-3.3
-136
-1.07
4.51
